Assignment: determine reported IC50 for the given compounds.
target: Human Factor D (Homo sapiens (Human)); experiment: Human Factor D Assay; assay type: biochemical; conditions: Table 8; Factor D 80 nM, substrate Z-L-Lys-SBz; read-out: IC50

COMPOUND	IC50
CC(=O)c1nn(CC(=O)N2CC3(CC(C4CCCCC4)=NO3)C[C@H]2C(=O)Nc2nc(Br)ccc2C)c2c(C)cc(-c3cnc(C)nc3)cc12 (stereo partly shown)	< 1 µM
COC(=O)CCCCCCCCCCCCCCCCC(=O)N[C@@H](CCC(=O)NCCOCCOCC(=O)NCCOCCOCC(=O)NC[C@@]12C[C@@H](C(=O)Nc3nc(Br)ccc3C)N(C(=O)Cn3nc(C(C)=O)c4cc(-c5cnc(C)nc5)ccc43)[C@@H]1C2)C(=O)OC	> 10 µM
CC(=O)c1nn(CC(=O)N2[C@H](C(=O)Nc3nc(Br)ccc3C)C[C@@]3(CN(C)C)C[C@@H]23)c2c(C(F)(F)F)cc(-c3cnc(C)nc3)cc12	< 1 µM
CCCNC(=O)c1nn(CC(=O)N2[C@H](C(=O)Nc3nc(Br)ccc3C)C[C@@]3(C)C[C@@H]23)c2ccc(-c3cnc(C)nc3)cc12	< 1 µM
CCC(C)NC(=O)c1nn(CC(=O)N2[C@H](C(=O)Nc3nc(Br)ccc3C)C[C@@]3(C)C[C@@H]23)c2ccc(-c3cnc(C)nc3)cc12 (stereo partly shown)	1 to 10 µM

For the 6 compounds below, give their IC50 values.
1. COC(=O)CCCCCCCCCCCCCCCCC(=O)N[C@@H](CCC(=O)NCCOCCOCC(=O)NCCOCCOCC(=O)NC[C@@]12C[C@@H](C(=O)Nc3nc(Br)ccc3C)N(C(=O)Cn3nc(C(C)=O)c4cc(-c5cnc(C)nc5)cc(C)c43)[C@@H]1C2)C(=O)OC
2. COC(=O)CCCCCCCCCCCCCCCCC(=O)N[C@@H](CCC(=O)NCCOCCOCC(=O)NCCOCCOCC(=O)NCc1ncc(-c2cc3c(C(C)=O)nn(CC(=O)N4[C@H](C(=O)Nc5nc(Br)ccc5C)C[C@@]5(C)C[C@@H]45)c3cn2)cn1)C(=O)OC
3. C=CCCCCCCc1cc(-c2cnc(C)nc2)cc2c(C(C)=O)nn(CC(=O)N3[C@H](C(=O)Nc4nc(Br)ccc4CC=C)C[C@@]4(C)C[C@@H]34)c12
4. CCCCNC(=O)c1nn(CC(=O)N2[C@H](C(=O)Nc3nc(Br)ccc3C)C[C@@]3(C)C[C@@H]23)c2ccc(-c3cnc(C)nc3)cc12
5. CC(=O)c1nn(CC(=O)N2[C@H](C(=O)Nc3nc(Br)ccc3C)C[C@@]3(C)C[C@@H]23)c2ccc(-c3cnc(CNC(=O)COCCOCCNC(=O)COCCOCCNC(=O)CC[C@H](NC(=O)CCCCCCCCCCCCCCCCC(=O)O)C(=O)O)nc3)cc12
6. CC(=O)c1nn(CC(=O)N2C[C@@]3(CC(c4ccccc4)=NO3)C[C@H]2C(=O)Nc2nc(Br)ccc2C)c2c(C)cc(-c3cnc(C)nc3)cc12

1. < 1 µM
2. < 1 µM
3. < 1 µM
4. < 1 µM
5. < 1 µM
6. 1 to 10 µM

List the reported IC50 of each compound below.
1. Cc1ncc(-c2cc(C#N)c3c(c2)c(C(N)=O)nn3CC(=O)N2[C@H](C(=O)Nc3nc(Br)ccc3C)C[C@@]3(C)C[C@@H]23)cn1
2. COC(=O)CCCCCCCCCCCCCCCCC(=O)N[C@@H](CCC(=O)NCCOCCOCC(=O)NCCOCCOCC(=O)NCc1ncc(-c2cc(C)c3c(c2)c(C(C)=O)nn3CC(=O)N2[C@H](C(=O)Nc3nc(Br)ccc3C)C[C@@]3(C)C[C@@H]23)cn1)C(=O)O
3. Cc1ncc(-c2ccc3c(c2)c(C(=O)NCC(C)C)nn3CC(=O)N2[C@H](C(=O)Nc3nc(Br)ccc3C)C[C@@]3(C)C[C@@H]23)cn1
4. CC(=O)c1nn(CC(=O)N2[C@H](C(=O)NCCCCCc3ccccc3)C[C@@]3(C)C[C@@H]23)c2c(C)cc(-c3cnc(C)nc3)cc12
5. CCCCCCCNC(=O)[C@@H]1C[C@@]2(C)C[C@H]2N1C(=O)Cn1nc(C(C)=O)c2cc(-c3cnc(C)nc3)cc(C)c21

["< 1 µM", "< 1 µM", "< 1 µM", "< 1 µM", "< 1 µM"]

# batch: return IC50 for each of the 3 compounds below
1. CCCCCCCCCCNC(=O)[C@@H]1C[C@@]2(C)C[C@H]2N1C(=O)Cn1nc(C(C)=O)c2cc(-c3cnc(C)nc3)cc(C)c21
2. CCCCCCCCCNC(=O)[C@@H]1C[C@@]2(C)C[C@H]2N1C(=O)Cn1nc(C(C)=O)c2cc(-c3cnc(C)nc3)cc(C)c21
3. CCCCCCCCCCCCCCCC(=O)NCCCC[C@H](NC(=O)[C@H](CCC(=O)O)NC(=O)[C@H](Cc1ccc(O)cc1)NC(=O)[C@H](CCC(=O)O)NC(C)=O)C(=O)N[C@@H](CCC(=O)O)C(=O)N[C@@H](Cc1ccc(O)cc1)C(=O)N[C@@H](CCC(=O)O)C(=O)NC[C@@]12C[C@@H](C(=O)Nc3nc(Br)ccc3C)N(C(=O)Cn3nc(C(C)=O)c4cc(-c5cnc(C)nc5)cc(C)c43)[C@@H]1C2

1. > 10 µM
2. 1 to 10 µM
3. 1 to 10 µM

* * *

Give IC50 for every item shown.
target: Human Factor D (Homo sapiens (Human), UniProt P00746); assay: Human Factor D Assay; format: biochemical; conditions: Factor D inhibition, assay of Example 10; read-out: IC5 (Stars)
Sequence (P00746 26-253): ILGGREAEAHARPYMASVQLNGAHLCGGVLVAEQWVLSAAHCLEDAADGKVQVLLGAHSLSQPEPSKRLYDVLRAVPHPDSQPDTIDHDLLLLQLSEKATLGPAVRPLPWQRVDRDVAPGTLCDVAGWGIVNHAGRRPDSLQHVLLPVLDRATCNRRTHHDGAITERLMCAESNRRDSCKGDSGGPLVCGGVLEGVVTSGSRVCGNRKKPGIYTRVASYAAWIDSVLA

Please review the entries below; each comes with its answer.
CC(=O)c1nn(CC(=O)N2[C@H](C(=O)Nc3nc(Br)ccc3C)C[C@@]3(CN4CCCC4)C[C@@H]23)c2c(CF)cc(-c3cnc(C)nc3)cc12 < 1000 nM
CC(=O)c1nn(CC(=O)N2[C@H](C(=O)Nc3nc(Br)ccc3C)C[C@@]3(CN4CC5(CCCC5)C4)C[C@@H]23)c2cnc(-c3cnc(C)nc3)cc12 < 1000 nM

Let us move to another entry and its IC50.
Lab note: CC(=O)c1nn(CC(=O)N2C[C@H]3C[C@H]3[C@H]2C(=O)NCc2cccc(Cl)c2F)c2c(C)cc(-c3cnc(C)nc3)cc12 gave IC50 of < 1000 nM

* * *

biological target: UniProtKB P00746; assay: Human Factor D Assay; format: biochemical; conditions: Table 6; Factor D 80 nM, substrate Z-L-Lys-SBz; read-out: IC50
Field: IC50. Provide a value for each of the compounds that follow.

Worked set:
COMPOUND	OBSERVED MEASUREMENT
CC(=O)c1nn(CC(=O)N2[C@H](C(=O)Nc3nc(Cl)ccc3CN(C)C)C[C@@]3(C)C[C@@H]23)c2c(C)cc(-c3cnc(C)nc3)cc12	< 1000 nM
NC(=O)c1cc(-c2cccnc2)n(CC(=O)N2C[C@H](F)C[C@H]2C(=O)Nc2cccc(Br)n2)n1	< 1000 nM
CC(=O)c1nn(CC(=O)N2C3CC3(CN3CC4CCCC4C3)C[C@H]2C(=O)Nc2nc(Br)ccc2C)c2ccc(-c3cnc(C)nc3)cc12 (stereo partly drawn)	< 1000 nM
CC(=O)c1nn(CC(=O)N2[C@H](C(=O)Nc3nc(Br)ccc3CN3CCOCC3)C[C@@]3(C)C[C@@H]23)c2cnc(-c3cnc(C)nc3)cc12	< 1000 nM
CC(=O)c1nn(CC(=O)N2[C@H](C(=O)O)C[C@@]3(C)C[C@@H]23)c2c(C)cc(-c3cnc(C)nc3)cc12	> 10000 nM

Lab note: COCc1cc(-c2cnc(C)nc2)cc2c(C(C)=O)nn(CC(=O)N3[C@H](C(=O)Nc4nc(Br)ccc4C)C[C@@]4(COC)C[C@@H]34)c12 gave IC50 of < 1000 nM

* * *

molecular target: Human Factor D (Homo sapiens (Human), UniProt P00746); assay: Human Factor D Assay; type: biochemical; settings: Factor D inhibition, assay of Example 10; read-out: IC5 (Stars)
pIC50: −log10 of the molar value.
RECORDED METRIC: pIC50

COMPOUND	TARGET OF ASSAY	pIC50
CC(=O)c1nn(CC(=O)N2[C@H](C(=O)Nc3nc(Br)ccc3C)C[C@@]3(CCCN(C)C)C[C@@H]23)c2c(CF)cc(-c3cnc(C)nc3)cc12 [Compound 345]	Human Factor D (Homo sapiens (Human), UniProt P00746)	> 6.00
CC(=O)c1nn(CC(=O)N2[C@H](C(=O)NCc3cccc(Cl)c3F)C[C@@]3(Cc4nnc(C)o4)C[C@@H]23)c2c(C)cc(-c3cnc(C)nc3)cc12 [Compound 434]	Human Factor D (Homo sapiens (Human), UniProt P00746)	> 6.00

Give measured pIC50 for every item shown.
1. CC(=O)c1nn(CC(=O)N2[C@H](C(=O)Nc3nc(Br)ccc3C)C[C@@]3(CN4CC5(CCC5)C4)C[C@@H]23)c2c(CF)cc(-c3cnc(C)nc3)cc12 [Compound 354]
2. CC(=O)c1nn(CC(=O)N2[C@H](C(=O)Nc3cccc(-n4ccccc4=O)n3)C[C@@]3(C)C[C@@H]23)c2c(C)cc(-c3cnc(C)nc3)cc12 [Compound 451]
3. CC(=O)c1nn(CC(=O)N2[C@H](C(=O)Nc3nc(Br)ccc3CN3CC4CCC3C4)C[C@@]3(C)C[C@@H]23)c2ccc(-c3cnc(C)nc3)cc12 (stereo partly drawn) [Compound 308]
4. CC(=O)c1nn(CC(=O)N2[C@H](C(=O)Nc3nc(Br)ccc3C)C[C@@]3(Cc4nc(C)no4)C[C@@H]23)c2c(C)cc(-c3cnc(C)nc3)cc12 [Compound 372]
5. CCNC(=O)c1nn(CC(=O)N2[C@H](C(=O)Nc3nc(Br)ccc3C)C[C@@]3(C)C[C@@H]23)c2ccc(-c3cnc(C)nc3)cc12 [Compound 474]
6. CC(=O)c1nn(CC(=O)N2[C@H](C(=O)Nc3cc(CCC(C)C)cc(Br)n3)C[C@@]3(C)C[C@@H]23)c2ccc(-c3cnc(C)nc3)cc12 [Compound 545]
7. CC(=O)c1nn(CC(=O)N2C[C@H](F)C[C@H]2C(=O)Nc2ccccn2)c2ccc(-c3cnc(C)nc3)cc12 [Compound 440]
8. Cc1ncc(-c2ccc3c(c2)c(C(C)(C)C#N)nn3CC(=O)N2[C@H](C(=O)Nc3nc(Br)ccc3C)C[C@@]3(C)C[C@@H]23)cn1 [Compound 368]

> 6.00
> 6.00
> 6.00
> 6.00
> 6.00
> 6.00
> 6.00
< 5.00
